Experiment: in vivo
Design: species or system mice
Settings: mouse, iv, 3.4 MBq, total radioactivity, Biodistribution, Pancreas
Property Name: tissue uptake at 0.25 h (%ID/g)
# output: bare number, implied unit %ID/g

INPUT: Which measured tissue uptake at 0.25 h value corresponds to CC(=O)NC(CCCCNC(=O)CN1CCN(CC(=O)O)CCN(CC(=O)O)CCN(CC(=O)O)CC1)C(=O)N1CCCC1C(=O)N(C)C(CCCNC(=N)N)C(=O)NC(CCCNC(=N)N)C(=O)N1CCCC1C(=O)NC(Cc1ccc(O)cc1)C(=O)NC(C(=O)NC(CC(C)C)C(=O)O)C(C)(C)C (stereo not shown) [^68Ga-DOTA-NT-20.3, metal not drawn] ?
OUTPUT: 2.03

---

Test: in vivo
Parameters: species or system mice
Conditions: mouse, iv, 3.4 MBq, total radioactivity, Biodistribution, Pancreas
Property Name: tissue uptake at 2 h (%ID/g)
Response body: numeric value in %ID/g, unit text excluded.

INPUT: Requested read-out: tissue uptake at 2 h. Entry: CC(=O)NC(CCCCNC(=O)CN1CCN(CC(=O)O)CCN(CC(=O)O)CCN(CC(=O)O)CC1)C(=O)N1CCCC1C(=O)N(C)C(CCCNC(=N)N)C(=O)NC(CCCNC(=N)N)C(=O)N1CCCC1C(=O)NC(Cc1ccc(O)cc1)C(=O)NC(C(=O)NC(CC(C)C)C(=O)O)C(C)(C)C (stereo not shown) [^68Ga-DOTA-NT-20.3, metal not drawn]
OUTPUT: 0.36

---

Assay: in vivo
Design: species or system mice
Conditions: mouse, iv, 3.4 MBq, total radioactivity, Biodistribution, Fat
Property Name: tissue uptake at 0.25 h (%ID/g)
Response body: numeric value in %ID/g, unit text excluded.

INPUT: What value of measured tissue uptake at 0.25 h is listed for CC(=O)NC(CCCCNC(=O)CN1CCN(CC(=O)O)CCN(CC(=O)O)CCN(CC(=O)O)CC1)C(=O)N1CCCC1C(=O)N(C)C(CCCNC(=N)N)C(=O)NC(CCCNC(=N)N)C(=O)N1CCCC1C(=O)NC(Cc1ccc(O)cc1)C(=O)NC(C(=O)NC(CC(C)C)C(=O)O)C(C)(C)C (stereo not shown) [^68Ga-DOTA-NT-20.3, metal not drawn] ?
OUTPUT: 1.11

---

Assay: in vivo
Set-up: species or system mice
Details: mouse, iv, 3.4 MBq, total radioactivity, Biodistribution, Pancreas
Property Name: tissue uptake at 5 min (%ID/g)
Quick note: give the figure in %ID/g, leave out the unit.

INPUT: # lookup: tissue uptake at 5 min of CC(=O)NC(CCCCNC(=O)CN1CCN(CC(=O)O)CCN(CC(=O)O)CCN(CC(=O)O)CC1)C(=O)N1CCCC1C(=O)N(C)C(CCCNC(=N)N)C(=O)NC(CCCNC(=N)N)C(=O)N1CCCC1C(=O)NC(Cc1ccc(O)cc1)C(=O)NC(C(=O)NC(CC(C)C)C(=O)O)C(C)(C)C (stereo not shown) [^68Ga-DOTA-NT-20.3, metal not drawn]
OUTPUT: 2.88

---

Test: in vivo
Parameters: species or system mice
Details: mouse, iv, 3.4 MBq, total radioactivity, Biodistribution, Testis
Property Name: tissue uptake at 5 min (%ID/g)
Only the number, expressed in %ID/g, is required.

INPUT: Requested field: tissue uptake at 5 min. Item: CC(=O)NC(CCCCNC(=O)CN1CCN(CC(=O)O)CCN(CC(=O)O)CCN(CC(=O)O)CC1)C(=O)N1CCCC1C(=O)N(C)C(CCCNC(=N)N)C(=O)NC(CCCNC(=N)N)C(=O)N1CCCC1C(=O)NC(Cc1ccc(O)cc1)C(=O)NC(C(=O)NC(CC(C)C)C(=O)O)C(C)(C)C (stereo not shown) [^68Ga-DOTA-NT-20.3, metal not drawn]
OUTPUT: 1.62
